Provide the reported IC50 of each item.
- systemName: CDK6/CycD3 (Homo sapiens (Human), UniProt Q00534)
- Sequence (Q00534 whole entry): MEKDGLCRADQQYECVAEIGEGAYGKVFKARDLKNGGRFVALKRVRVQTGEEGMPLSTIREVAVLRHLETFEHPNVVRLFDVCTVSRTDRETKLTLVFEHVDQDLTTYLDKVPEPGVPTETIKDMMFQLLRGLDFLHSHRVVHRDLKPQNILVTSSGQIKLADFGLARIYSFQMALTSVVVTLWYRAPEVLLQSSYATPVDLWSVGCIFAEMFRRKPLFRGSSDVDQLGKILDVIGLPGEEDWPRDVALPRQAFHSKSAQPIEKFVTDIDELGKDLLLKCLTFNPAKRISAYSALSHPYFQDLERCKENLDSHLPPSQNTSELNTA
- Sequence (P30281 whole entry partner): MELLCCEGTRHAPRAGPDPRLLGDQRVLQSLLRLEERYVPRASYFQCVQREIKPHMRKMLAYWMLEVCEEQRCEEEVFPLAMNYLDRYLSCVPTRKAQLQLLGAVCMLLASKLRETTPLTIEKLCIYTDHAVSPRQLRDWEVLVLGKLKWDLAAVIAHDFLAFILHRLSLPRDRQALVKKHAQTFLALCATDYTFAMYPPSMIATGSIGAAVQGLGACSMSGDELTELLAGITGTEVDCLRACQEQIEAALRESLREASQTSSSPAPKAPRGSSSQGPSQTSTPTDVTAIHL
- assayDetails: CDK6/CycD3 kinase inhibition (Biological Table 1)
Give your result in µM as a bare value.

*Q* Form field: reported IC50 of CN1CCN(c2ccc(Nc3ncc4c(n3)N3C(CC4)C(=O)NCC34CCCCC4)nc2)CC1 (centres unmarked)
*A* 75.9

*Q* Repeat for the following molecule: CN1CCN(c2ccc(Nc3ncc4c(n3)N3CCNC(=O)C3CC4=O)nc2)CC1 (centres unmarked)
*A* 50.4

*Q* Repeat for the following molecule: CCOC(=O)C1C(=O)c2cnc(Nc3ccc(N4CCN(C)CC4)cn3)nc2N2CCCCC12 (centres unmarked)
*A* 3.5

*Q* Repeat for the following molecule: CN1CCN(c2ccc(Nc3ncc4c(n3)N3CCCCC3CC4=O)nc2)CC1 (centres unmarked)
*A* 1.8

====

- systemName: CDK4/CycD (Homo sapiens (Human))
- Sequence (P11802 whole entry): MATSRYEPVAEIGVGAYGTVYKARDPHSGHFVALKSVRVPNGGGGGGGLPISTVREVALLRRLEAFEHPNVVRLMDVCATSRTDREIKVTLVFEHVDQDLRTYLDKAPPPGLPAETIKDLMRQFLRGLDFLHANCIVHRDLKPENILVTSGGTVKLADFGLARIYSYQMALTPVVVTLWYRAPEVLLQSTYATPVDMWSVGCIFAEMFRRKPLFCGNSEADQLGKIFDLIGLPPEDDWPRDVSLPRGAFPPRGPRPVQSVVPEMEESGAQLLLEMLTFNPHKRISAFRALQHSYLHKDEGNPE
- Sequence (P24385 whole entry partner): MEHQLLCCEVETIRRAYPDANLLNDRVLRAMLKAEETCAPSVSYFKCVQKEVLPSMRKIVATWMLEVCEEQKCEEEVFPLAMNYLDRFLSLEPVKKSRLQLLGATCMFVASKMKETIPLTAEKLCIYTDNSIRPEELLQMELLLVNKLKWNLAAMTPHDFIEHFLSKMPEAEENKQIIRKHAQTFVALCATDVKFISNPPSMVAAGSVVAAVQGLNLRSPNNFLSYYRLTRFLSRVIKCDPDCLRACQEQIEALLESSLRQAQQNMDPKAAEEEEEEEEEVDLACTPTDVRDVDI
- assayDetails: CDK4/CycD kinase inhibition (Biological Table 1)
Provide the reported log10 of IC50 of each item.
A difference of one corresponds to tenfold IC50; all values are log10 with IC50 in µM.

*Q* Form field: reported log10 of IC50 of CN1CCN(c2ccc(Nc3ncc4c(n3)N3CCCCC3CC4=O)nc2)CC1 (stereo not drawn)
*A* 0.67

*Q* Repeat for the following compound: CN1CCN(c2ccc(Nc3ncc4c(n3)N3C(CC4)C(=O)NCC34CCCCC4)nc2)CC1 (stereo not drawn)
*A* 1.68

*Q* Repeat for the following compound: CCOC(=O)C1C(=O)c2cnc(Nc3ccc(N4CCN(C)CC4)cn3)nc2N2CCCCC12 (stereo not drawn)
*A* 0.61

*Q* Repeat for the following compound: CN1CCN(c2ccc(Nc3ncc4c(n3)N3CCNC(=O)C3CC4=O)nc2)CC1 (stereo not drawn)
*A* 1.16

*Q* Repeat for the following compound: "CN1CCN(c2ccc(Nc3ncc4c(n3)N3C(=NCCC35CCCCC5)C=C4)nc2)CC1"
*A* 0.41

*Q* Repeat for the following compound: CN1CCN(c2ccc(Nc3ncc4c(n3)N3C(CC4=O)C(=O)NCC3(C)C)nc2)CC1 (stereo not drawn)
*A* 0.91

====

- systemName: CDK2/CyclinE (Homo sapiens (Human), UniProt P24941)
- assayDetails: CDK2/cyclinE kinase assay, microfluidic kinase detection (Caliper, Nanosyn)
- conditionLabel: 12-point dose-response, ATP at Km (100 μM), enzyme 0.28 nM, incubation 1 hr; read-out: CDK2/Cyclin E
Provide the reported pIC50 of each item.
Answer as the number alone; pIC50 is minus log10 of concentration in mol/L.

*Q* Form field: reported pIC50 of "CO[C@H]1CC[C@@]2(CC1)CNC(=O)c1cc3cnc(Nc4ccc(N5CCN(C)CC5)cn4)nc3n12"
*A* 4.85

*Q* Repeat for the following compound: "CN1CCN(c2ccc(Nc3ncc4cc5n(c4n3)C3(CCCCC3)C(=O)NC5)nc2)CC1"
*A* 5.40

*Q* Repeat for the following compound: "CN1CCN(c2ccc(Nc3ncc4cc5n(c4n3)C3(CCCCC3)Cn3ccnc3-5)nc2)CC1"
*A* 4.00

*Q* Repeat for the following compound: "O=C1NCC2(CCCCC2)n2c1cc1cnc(N[C@H]3CC[C@H](N4CCN(CC5CC5)CC4)CC3)nc12"
*A* 6.52

*Q* Repeat for the following compound: "O=C1NCC2(CCCCC2)n2c1cc1cnc(N[C@H]3CC[C@@H](N4CCN(CC5CC5)CC4)CC3)nc12"
*A* 5.30

*Q* Repeat for the following compound: "CN1CCN(c2ccc(Nc3ncc4cc5n(c4n3)C3(C=NC5)CCCCC3)nc2)CC1"
*A* 7.40
